# Test: chemical genetic growth profiling, strain panel (AID 1159580);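 also: tested at 20 µM; growth read once vehicle control cultures reached saturation at 30 °C; 1 = growth at the plate median or of vehicle wells; lower values mean less growth of the strain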
# Measurement context: S. cerevisiae deletion strains, growth OD, locus YLR102C, strain apc9, stronger effect = lower value
Out of some 5,500 compounds screened, about 2,000 (36%) were called active. About 18% were inconclusive and are not listed. The list shows a part of the results.
Recorded metric: normalized growth

compound=CC(=O)Oc1ccc(Cl)c2cccnc12 result_number=0.0628
compound=COc1cc2c(c(OC)c1OC)-c1ccc(O)c(=O)cc1[C@@H](NC(C)=O)CC2 result_number=1.02
compound=O=C1C=CC2=C3c4cc(O)c(O)cc4C[C@@]3(O)COC2=C1 result_number=0.992
compound="CC(C)(C)NCC(O)c1ccccc1Cl (configuration not stated)" result_number=0.986
compound=Nc1ncnc2c1ncn2[C@@H]1O[C@H](CO)[C@@H](O)[C@H]1O result_number=0.978
compound=CC(C)(C)NC[C@@H](O)COc1nsnc1N1CCOCC1 result_number=0.976
compound="Nc1nc2c(ncn2C2C[C@H](O)[C@@H](CO)O2)c(=O)[nH]1 (some centres not stated)" result_number=0.543
compound=O=C(O[C@@H]1Cc2c(O)cc(O)cc2O[C@@H]1c1cc(O)c(O)c(O)c1-c1c([C@H]2Oc3cc(O)cc(O)c3C[C@H]2O)cc(O)c(O)c1O)c1cc(O)c(O)c(O)c1 result_number=0.885
compound=Oc1ccc(Cl)c2cccnc12 result_number=0.0664
compound=CN[C@H](CC(=O)O)C(=O)O result_number=0.989
compound=Oc1c(I)cc(I)c2cccnc12 result_number=0.0939
compound="CSCCC(NC=O)C(=O)NC(C)C(=O)O (configuration not stated)" result_number=0.98
